Listed here are binders together with their documented neutralization IC50.
molecular target: HIV-1 Env of pseudovirus RHPA4259.7 (HIV-1); assay: cell-based or functional assay
Kindly provide the numeric value in µg/mL only, without the unit symbol.

binder | neutralization IC50 (µg/mL)
MS-75 (antibody, V domains shown) VH: QVQLVQSGPEVRKPGTSVKVSCKASGNTLKTYDLHWVRSVPGQGLQWMGWISHEGDKKVIVERFKAKVTIDWDRSTNTAYLQLSGLTSGDTAVYYCAKGSKHRLRDYALYDDDGALNWAVDVDYLSNLEFWGQGTAVTVSS VL: DFVLTQSPHSLSVTPGESASISCKSSHSLIHGDRNNYLAWYVQKPGRSPQLLIYLASSRASGVPDRFSGSGSDKDFTLKISRVETEDVGTYYCMQGRESPWTFGQGTKVDIKR | 0.276

Then this binder:
What neutralization IC50 value was documented for this binder, MS-84 (antibody, V domains shown) VH: QVQLVQSGPEVRKPGTSVKVSCKAPGNTLKTYDLHWVRSVPGQGLQWMGWISHEGDKKVIVERFKAKVTIDWDRSTNTAYLQLSGLRSGDTAVYYCAKGSKHRLRDYALYDDDGALNWAVDVDYLSNLEFWGQGTAVTVSS VL: DFVLTQSPLSLPVTPGEPASISCKSSHSLIHGDRNNYLAWYVQKPGQSPQLLIYLASSRASGVPDRFSGSGSDKDFTLKISRVEAEDVGVYYCMQGRESPWTFGQGTKVDIKR ?
0.175
